system: Wolbachia pipientis; assay: Anti-Wolbachia Cell-Based Screen; type: functional; design: scale not given: in the data most compounds retested in dose-response had high values; conditions: 5 µM
The whole screen tested about 48,000 compounds, of which about 13,000 (27%) showed an effect of 50% or more. The list shows a part of the results.
Hi there, I'd appreciate the recorded Percent Effect for every entry that follows.
# value in %; strip the unit string

# input Recorded Percent Effect for "O=C(Nc1ccnc2ccnn12)c1ccc(N2CCC(O)CC2)cc1" , please?
# output 5.741

# input Follow-up item: O=C1CC(C(=O)O)C2(CCN(C(=O)Nc3ccccc3Cl)CC2)N1 (centres undefined)
# output 8.972

# input Try this compound next: CCc1ccc(C(=O)NC(C)c2ccc(S(C)(=O)=O)c(F)c2)o1 (centres undefined)
# output 2.681

# input Again, but for CCn1c(CN2CCOC(Cn3cncn3)C2)nc2c(F)cccc21 (centres undefined)
# output -6.661

# input One more compound: "c1csc(N2CCN(Cc3cc4n(n3)CCNC4)CC2)n1"
# output -2.451

# input Moving on to the next compound: "Cc1cc(CN(C)C(=O)c2ccc(Cl)c(S(C)(=O)=O)c2)no1"
# output -0.7928

# input Also check COCc1ccccc1CNC(=O)CN1CCC2(CCOC2)C1 (centres undefined)
# output -0.6554

# input Quick one: Cc1ccc(CN(Cc2ccccn2)C(=O)C2CCCCCN2C)s1 (centres undefined)
# output -49.91

# input Let us now turn to "CN1CCC(N2CCOC[C@H](OCC(=O)N(C)C)C2)CC1"
# output -7.154

# input Param item: Cc1nc(C2CCCN2Cc2ncc(C(C)C)o2)no1 (centres undefined)
# output 8.273

# input "O=S(=O)(Cc1ccccc1)NCCNc1ccc(-n2cccc2)nn1" , same question.
# output 11.81

# input Again, but for "CCNc1nc2c(s1)C(=O)CN(C(=O)NCc1ccccc1)C2"
# output 105.7

# input Can you check CCCC(C)CS(=O)(=O)NCc1cccnc1OC (centres undefined) next?
# output 6.664

# input Field entry: "CC(C)c1ccc(S(=O)(=O)NC2(CC(N)=O)CCC2)cc1"
# output -1.072

# input // query: COc1ccccc1NC(=O)NC(C)c1nc[nH]n1 (centres undefined)
# output -1.106

# input Query CSc1ccc(C(CC(=O)O)NC(=O)c2cc(C)on2)cc1 (centres undefined) next
# output 6.189

# input Entry Cc1nc(C2CCCN2Cc2nc(C)c(C)o2)no1 (centres undefined) please
# output -0.5484

# input Next record, please: "CN(C)C1CCN(C(=O)CCc2cc(Br)cs2)CC1"
# output 1.097

# input Similarly, Cc1cc(C)cc(C2(C(=O)NC(C)Cn3ccnc3)CC2)c1 (centres undefined) ?
# output -3.779

# input Thanks! And "Cc1cc2cc(CNC3CCN(CC(=O)N(C)C)CC3)oc2cc1C" ?
# output -4.492

# input Repeat for the following compound: "CC(C)(C)c1noc(CN2CCN(C(=O)c3cccs3)CC2)n1"
# output -8.519

# input How about this compound: Cc1nc(C)c(CNC(=O)NC(c2nnc3n2CCC3)C(C)C)s1 (centres undefined)
# output -4.122

# input Next entry: "CCNc1nc2c(s1)C(=O)CN(C(=O)NCCc1ccccc1)C2"
# output -10.47

# input Entry to check: "CC(=O)Nc1ccc(C(=O)Nc2cnc3n2CCCC3)cc1C"
# output 7.352

Recorded values, source ChEMBL document CHEMBL3988442.
